Assay system: Peptidyl-prolyl cis-trans isomerase NIMA-interacting 1 (Homo sapiens)
Sequence (Q13526 whole entry): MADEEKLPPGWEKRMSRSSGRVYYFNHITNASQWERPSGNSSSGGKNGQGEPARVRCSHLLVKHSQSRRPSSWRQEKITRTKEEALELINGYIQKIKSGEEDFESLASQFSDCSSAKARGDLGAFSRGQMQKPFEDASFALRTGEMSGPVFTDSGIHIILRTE
Method description: Inhibition of recombinant Pin1 (unknown origin) using Suc-AEPF-MCA as substrate preincubated followed by substrate addition and measured after 60 to 180 mins by proteinase-coupled based fluorescence method
Experimental endpoint: pKi
The scale used: pKi is minus the common logarithm of the concentration in molar units.

Known value: Peptidyl-prolyl cis-trans isomerase NIMA-interacting 1 (Homo sapiens) pKi of the molecule CC(C)(C)c1ccc(S(=O)(=O)/N=C2\C=C(SCC(=O)O)C(=O)c3ccccc32)cc1 equals 6.20
